test system: HaCaT; assay: Cytotoxicity against human HaCaT cells assessed as reduction in cell viability at 20 uM after 72 hrs by MTT assay; type: cell-based
reported-property: Activity

COc1ccc2nc(C)cc(OCC(=O)Nc3ccc(Br)cc3)c2c1	Non-toxic
COc1ccc2nc(C)cc(OCC(=O)Nc3ccccc3C)c2c1	Non-toxic
COc1ccc(NC(=O)COc2cc(C)nc3ccc(OC)cc23)cc1	Non-toxic

###

assay: Selectivity index, ratio of cytotoxic activity for human HaCaT cells to MIC for Mycobacterium tuberculosis H37Rv; type: toxicity, cell-based; conditions: read-out: Selectivity Index
reported-property: Selectivity ratio

Briefly, Selectivity ratio measured for "COc1ccc2nc(C)cc(OCC(=O)Nc3ccc4ccccc4c3)c2c1" : > 100
